Every entry's value here was drawn from ChEMBL document CHEMBL1131857.

Consider molecules characterized by their IC50 with Muscarinic acetylcholine receptor M1 (Rattus norvegicus).
Sequence (P08482 whole entry): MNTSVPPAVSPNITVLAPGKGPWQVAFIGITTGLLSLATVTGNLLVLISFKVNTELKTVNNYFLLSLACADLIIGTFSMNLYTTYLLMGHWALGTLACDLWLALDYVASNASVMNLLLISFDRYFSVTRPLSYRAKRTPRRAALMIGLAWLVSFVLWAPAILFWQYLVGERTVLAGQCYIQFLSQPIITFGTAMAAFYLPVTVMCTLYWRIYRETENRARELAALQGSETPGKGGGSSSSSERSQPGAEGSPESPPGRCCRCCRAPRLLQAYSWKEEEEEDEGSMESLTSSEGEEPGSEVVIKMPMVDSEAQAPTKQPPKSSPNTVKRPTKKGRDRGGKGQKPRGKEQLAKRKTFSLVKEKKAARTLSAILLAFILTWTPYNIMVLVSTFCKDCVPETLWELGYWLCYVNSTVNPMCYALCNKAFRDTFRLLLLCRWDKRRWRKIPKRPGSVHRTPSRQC
Answers are plain numbers, in nM.

Please review the entries below; each comes with its answer.
INSERT INTO results (molecule, tested_target, observed_property, endpoint_unit, experimental_result) VALUES
  ('O=C1Nc2cccnc2N(C(=S)CC2CCCN3CCCC[C@@H]23)c2ccccc21 (some centres undefined)', 'Muscarinic acetylcholine receptor M1 (Rattus norvegicus)', 'IC50', 'nM', 10),
  ('O=C1c2ccccc2-n2c(nc3cccnc32)CN1C[C@@H]1CCCN2CCCC[C@H]12', 'Muscarinic acetylcholine receptor M1 (Rattus norvegicus)', 'IC50', 'nM', 1200),
  ('Cc1cc(C(=O)c2ccccc2)ccc1NC(=O)CC1CCCN2CCCC[C@H]12 (some centres undefined)', 'Muscarinic acetylcholine receptor M1 (Rattus norvegicus)', 'IC50', 'nM', 8);

Lab note: next molecule to report on.
Consider O=C1Nc2ccccc2N(C(=O)CC2CCCN3CCCCC23)c2ncccc21 (centres undefined) . Its measured IC50 is 650
